Value source: PubChem BioAssay

Test Details: liver-stage malaria parasite growth inhibition, primary screen, cell-based, HepG2, luciferase luminescence, HepG2 viability (AID 624349);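 also: 100% = mean of DMSO negative control wells on the same plate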
Study Conditions: P. berghei liver stage in HepG2, luciferase luminescence, concentration not given here; measured here: HepG2 viability without parasites
// reported viability per item
Readout Kind: viability

CO[C@H]1O[C@@H]2O[C@@]3(C)CC[C@H]4[C@H](C)CC[C@@H]([C@H]1C)[C@@]24OO3 : 66.6%
OC[C@@H](O)[C@@H](O)[C@H](O)[C@@H](O)CO : 97.5%
CC(=O)OCC(=O)[C@@]1(OC(C)=O)[C@@H](C)CC2C3C[C@H](F)C4=CC(=O)C=C[C@]4(C)[C@@]3(F)[C@@H](O)C[C@@]21C (stereo partly drawn) : 105%
CC(=O)OCC(=O)[C@H]1CCC2C3CCC4=CC(=O)CC[C@]4(C)C3CC[C@@]21C (stereo partly drawn) : 97.7%
CN(C)[C@@H]1C(=O)C(C(=O)NCN2CCCC2)=C(O)[C@@]2(O)C(=O)C3=C(O)c4c(O)cccc4[C@@](C)(O)[C@H]3C[C@@H]12 : 99.8%
CC(CCC(=O)O)[C@H]1CCC2C3C(=O)C[C@@H]4CC(=O)CC[C@]4(C)C3CC(=O)[C@@]21C (stereo partly drawn) : 81.3%
O=c1[nH]c(=O)n(C2C[C@@H](O)[C@@H](CO)O2)cc1F (stereo partly drawn) : 108%
Nc1ncnc2n[nH]c(Nc3ccc(F)cc3)c12 : 85.8%
CON=C(C(=O)N[C@@H]1C(=O)N2C(C(=O)O)=C(COC(N)=O)CS[C@H]12)c1ccco1 : 88.2%
CC(C)(C)NCC(O)COc1cccc2c1CCCC2=O (stereo not drawn) : 103%
CC(=O)O[C@@]12CO[C@@H]1C[C@H](O)[C@@]1(C)C(=O)[C@H](O)C3=C(C)[C@@H](OC(=O)[C@H](O)[C@@H](NC(=O)OC(C)(C)C)c4ccccc4)C[C@](O)([C@@H](OC(=O)c4ccccc4)[C@H]21)C3(C)C : 76.2%
CC(=O)c1cc2ccccc2oc1=O : 96.7%
CO[C@@]12[C@@H]3NC3CN1C1=C(C(=O)C(N)=C(C)C1=O)[C@@H]2COC(N)=O (stereo partly drawn) : 22.5%
Cc1sc(N)c(C(=O)c2cccc(C(F)(F)F)c2)c1C : 69.8%
CN1CCc2cc(Cl)c(O)cc2[C@@H](c2ccccc2)C1 : 72.6%
O=C1c2c(O)cc(O)cc2O[C@H](c2ccc(O)c(O)c2)[C@H]1O : 91%
CC(=O)C1(O)CCC2C3CC(C)C4=CC(=O)C=CC4(C)C3(F)C(O)CC21C (stereo not drawn) : 93.8%
OC[C@H]1O[C@@H](n2cnc3c(NC4CCCC4)nc(Cl)nc32)[C@@H](O)C1O (stereo partly drawn) : 67.2%

---

Test Details: sensitizers of A549 cells to miR-34 induction, primary screen, imaging, A549 dox-inducible miR-34, nuclei and caspase counts (AID 1347080)
Study Conditions: A549 miR-34 inducible, Hoechst nuclei count, 48 h; measured here: total cells without miR-34 induction
Readout Kind: cell count

CCCC[C@@H](CC)COC(=O)C(C#N)=C(c1ccccc1)c1ccccc1 : 8950
O=c1[nH]c(=O)n([C@H]2C[C@H](O)C(CO)O2)cc1I (stereo partly drawn) : 7880
C=C1CC[C@H](O)C/C1=C/C=C1\CCC[C@]2(C)C([C@H](C)/C=C/[C@H](C)C(C)C)CC[C@@H]12 (stereo partly drawn) : 12200
CC(C)C[C@@H](NC(=O)OCC1c2ccccc2-c2ccccc21)C(=O)O : 9370
COc1nc(N)nc2c1ncn2C1O[C@H](CO)[C@@H](O)[C@@H]1O (stereo partly drawn) : 8740
NC[C@H]1O[C@H](OC2[C@@H](N)C[C@@H](N)[C@H](O[C@H]3O[C@H](CO)[C@@H](O)[C@H](N)[C@H]3O)[C@H]2O)[C@H](O)[C@@H](O)[C@@H]1O (stereo partly drawn) : 13200
NC[C@@H]1O[C@H](O[C@@H]2[C@@H](CO)OC(O[C@@H]3[C@@H](O)[C@H](N)C[C@H](N)[C@H]3OC3O[C@H](CN)[C@@H](O)[C@H](O)[C@H]3N)[C@@H]2O)[C@H](N)[C@@H](O)[C@@H]1O (stereo partly drawn) : 12900
N[C@@H]1[C@@H](O)[C@H](O)[C@@H](CO)O[C@H]1O : 12600
